- Method description: NCI Yeast Anticancer Drug Screen. Data for the mec2-1 strain (AID 157)
- Run conditions: S. cerevisiae mec2-1 strain, at 50.0 µM
About 79,000 compounds went through this panel and 15% of them were active in at least one assay; those are over-represented in the sample as a whole. The source made the active and inactive calls. Rule as the data show it: active = growth inhibition above about 70%; inactive = the rest.
Output constraint: value belongs to active, inactive

Example entries and their recorded answers appear below.
| Compound | Label class |
| --- | --- |
| Cc1cccc(C)c1NC(=O)CCC(=O)C(C)C(=O)c1ccc(O)cc1 (stereo unspecified) | inactive |
| CCCCCCCCCCCCCCCCCCN(C)C(COC)COP(=O)([O-])OCC[N+](C)(C)C (stereo unspecified) | inactive |
| C[N+](C)([O-])CCCNc1c2ccccc2nc2cccc([N+](=O)[O-])c12 | active |
| O=C1C(CCSc2ccccc2)C(=O)N(c2ccccc2)C1c1ccccc1 (stereo unspecified) | active |

Task item: Recorded call for `Cc1cccc2c(Cl)c3cccc(C)c3nc12` ?
Reply: inactive

Task item: Recorded call for `O=C(O)c1c2ccc(Cl)cc2nc2[nH]c(=O)[nH]c(=O)c12` ?
Reply: inactive

Task item: Recorded call for `Cn1c(-c2ccc(/C=N\N3CCN(/N=C/c4ccc(-c5c[n+]6ccsc6n5C)cc4)CC3)cc2)c[n+]2ccsc12` ?
Reply: inactive

Task item: Recorded call for `CCN(CC)CCNc1ccc2nc(C)n3c4ccc(O)cc4c(=O)c1c23` ?
Reply: inactive

Task item: Recorded call for `Cc1c2c(nc3ccccc13)C(=O)c1cccnc1C2=O` ?
Reply: inactive

Task item: Recorded call for `CCOC(=O)Nc1ccc(C)c(NC(=O)OCC)c1` ?
Reply: inactive

Task item: Recorded call for `CN(C)CC1=Nc2cccc3cccc(c23)N1` ?
Reply: active

---

- Method description: NCI Yeast Anticancer Drug Screen. Data for the rad52 strain (AID 147);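 also: 0% = growth of vehicle-treated control cultures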
- Run conditions: S. cerevisiae rad52 mutant growth inhibition; at 33.0 µM
This is part of a sample that, as a whole, favours compounds with a hit. Of some 79,000 tested, about 15% had one in any assay. The source made the active and inactive calls. No stated cut-off is given here; in the data, active means growth inhibition above about 70%; inactive means the rest.
Output constraint: value belongs to Yes = active, No = inactive

Example entries and their recorded answers appear below.
| Compound | Label class |
| --- | --- |
| CC(=O)/C=C/c1cccc([N+](=O)[O-])c1 | No |
| O=C(O)C1CCCCC1c1c2ccc(=O)cc-2oc2cc(O)ccc12 (stereo not given) | No |
| CC(C)[Si]1(C(C)C)OCC2OC(n3cnc4c(N)ncnc43)C(N)C2O[Si](C(C)C)(C(C)C)O1 (stereo not given) | Yes |

Task item: Recorded call for CC1=NN(C(=O)CC(=O)NC(=O)/C=C\c2ccccc2)C(=O)C1N=Nc1ccc([N+](=O)[O-])cc1 (stereo not given) ?
Reply: Yes

Task item: Recorded call for `Cc1ccc(S(=O)(=O)N/N=C/C(Br)=C(/Br)C(=O)O)cc1` ?
Reply: Yes

---

- Method description: NCI Yeast Anticancer Drug Screen. Data for the rad50 strain (AID 155);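 also: 0% = growth of vehicle-only cultures of the same strain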
- Run conditions: S. cerevisiae rad50 strain growth inhibition; at 100.0 µM; hits give high values
About 79,000 compounds went through this panel and 15% of them were active in at least one assay; those are over-represented in the sample as a whole.
Experimental readout: growth inhibition (%)
Form entry: value (%) — number only.

| Compound | growth inhibition (%) |
| --- | --- |
| O=C1NC(c2cccc(OCc3ccccc3)c2)Nc2ccccc21 (centres undefined) | -9 |

Form field growth inhibition, entry `O=C1c2cccc3cccc(c23)C(=O)N1O` : 89
